# System: Mus musculus
# TEST: Anticonvulsant activity in ip dosed CF-1 albino mouse assessed as protection against maximal electroshock-induced seizures after 4 hrs
# Assay type: functional
METRIC: MED50 (mg/kg)
Report as a plain number; the unit mg/kg is understood.

Guide cases for MED50, answers given:
// lookup MED50 | system=Mus musculus | key= CC1(c2ccccc2)CC(=O)N(CN2CCN(c3ccc(Cl)cc3)CC2)C1=O (stereo not given)
100

Try this molecule too: CC1(c2ccccc2)CC(=O)N(CN2CCN(c3ccc(Cl)c(Cl)c3)CC2)C1=O (stereo not given)
30

Now the same for COc1cccc(N2CCN(CN3C(=O)CC(C)(C)C3=O)CC2)c1
100

Subsequent entry: CC1(c2ccccc2)CC(=O)N(CN2CCN(c3cccc(C(F)(F)F)c3)CC2)C1=O (stereo not given)
100

More entries:
Please state recorded MED50 (tested on Mus musculus) of CC1(c2ccccc2)CC(=O)N(CN2CCN(c3ccccc3)CC2)C1=O (stereo not given)
100

###

# Test system: Rattus norvegicus
# TEST: Anticonvulsant activity in Sprague-Dawley albino rat assessed as protection against maximal electroshock-induced seizures at 30 mg/kg, po after 4 hrs
# Assay type: functional
Activity calls are given as the source filed them. The calls are words filed in the database; no cut-off is given here.
METRIC: Activity

Examples from the recorded data:
Entry CC1(c2ccccc2)CC(=O)N(CN2CCN(c3ccc(Cl)c(Cl)c3)CC2)C1=O (centres undefined) : reported Activity = ?
Active

Okay, and CC1(c2ccccc2)CC(=O)N(CN2CCN(c3ccc(F)cc3)CC2)C1=O (centres undefined) ?
75%

Proceed to Cc1cccc(N2CCN(CN3C(=O)CC(C)(c4ccccc4)C3=O)CC2)c1 (centres undefined)
50%

And CC1(C)CC(=O)N(CN2CCN(c3cccc(C(F)(F)F)c3)CC2)C1=O ?
Active

Query O=C1NC(=O)C(c2ccccc2)(c2ccccc2)N1 next
75%

And what about the compound COc1ccccc1N1CCN(CN2C(=O)CC(C)(c3ccccc3)C2=O)CC1 (centres undefined) ?
50%

Now consider CC1(c2ccccc2)CC(=O)N(CN2CCN(c3ccc(Cl)cc3)CC2)C1=O (centres undefined) .
75%

Continuing:
Value lookup for Activity; key = CC1(c2ccccc2)CC(=O)N(CN2CCN(c3cccc(Cl)c3)CC2)C1=O (centres undefined)
50%

###

# key: entry, value: TD50
# TEST: Neurotoxicity in po dosed Sprague-Dawley albino rat at 30 mg/kg, po after 0.25 to 4 hrs by rotarod test
# Assay type: toxicity, organism-based
# Set-up: dose 30 mg/kg, route oral
# MEASUREMENT_PARAMETERS: in vivo

Query: TD50; subject: CC1(c2ccccc2)CC(=O)N(CN2CCN(c3cccc(Cl)c3)CC2)C1=O (centres undefined)
> 250 mg/kg

Further cases:
What TD50 value was documented for this compound, O=C1CC(c2ccccc2)(c2ccccc2)C(=O)N1CN1CCN(c2cccc(C(F)(F)F)c2)CC1 ?
< 400 mg/kg

Would you kindly repeat that for O=C1CC2(CCc3ccccc3C2)C(=O)N1CN1CCN(c2cccc(Cl)c2)CC1 (centres undefined) ?
> 400 mg/kg

Another compound: O=C1NC(=O)C(c2ccccc2)(c2ccccc2)N1
> 100 mg/kg

###

# System: Vibrio harveyi
# TEST: Induction of mutagenecity in Vibrio harveyi BB7XM
# Assay type: organism-based
# MEASUREMENT_PARAMETERS: in vivo
METRIC: Activity

I am curious: what Activity value has been reported for Cc1ccccc1N1CCN(CN2C(=O)CC(C)(c3ccccc3)C2=O)CC1 (stereo not given) ?
Toxic

Also COc1cccc(N2CCN(CN3C(=O)CC(C)(c4ccccc4)C3=O)CC2)c1 (stereo not given) ?
Toxic

Ok, now CC1(c2ccccc2)CC(=O)N(CN2CCN(c3ccccc3)CC2)C1=O (stereo not given)
Non-toxic

Now this one: CC1(c2ccccc2)CC(=O)N(CN2CCN(c3cccc(Cl)c3)CC2)C1=O (stereo not given)
Non-toxic

Next:
What does the record list as Activity for Cc1cccc(N2CCN(CN3C(=O)CC(C)(c4ccccc4)C3=O)CC2)c1 (stereo not given) ?
Toxic
